# maps each entry to its viability, T/C
# Test system: 941728-121-R-J1-PDC complex spheroid viability
# assay: Anticancer human tumor 941728-121-R-J1-PDC patient-derived lung adenocarcinoma cell line growth inhibition [RAS]
# particulars: second compound 0.1 µM; first compound 0.0316 µM; stronger effect = lower value
API: value field is a number in %; no unit string.

Recorded results for 2 molecules are shown here.
molecule="CC(C)NCC(C(=O)N1CCN(c2ncnc3c2C(C)CC3O)CC1)c1ccc(Cl)cc1 (stereo not drawn) + C=CC(=O)N1CCN(c2nc(OCC3CCCN3C)nc3c(F)c(-c4nc(N)cc(C)c4C(F)(F)F)c(Cl)cc23)C(C)C1" parameter="viability, T/C" value_unit=% value=19.6
molecule="CCC(CC)c1cc(NC2CCC(N)C2)n2nccc2n1 (stereo not drawn) + C#Cc1c(F)ccc2cc(O)cc(-c3ncc4c(N5CC6CCC(C5)N6)nc(OCC56CCCN5CC(F)C6)nc4c3F)c12" parameter="viability, T/C" value_unit=% value=96.1

Please examine the following record next.
Problem: Fill blank: measured viability, T/C of the molecule C=CC(=O)Nc1cc(Nc2nccc(-c3cn(C)c4ccccc34)n2)c(OC)cc1N(C)CCN(C)C + C=CC(=O)N1CCN(c2nc(OCC3CCCN3C)nc3c(F)c(-c4nc(N)cc(C)c4C(F)(F)F)c(Cl)cc23)C(C)C1 is ____.
Result: 15.5

---

# Test system: 941728-121-R-J1-PDC complex spheroid viability
# assay: Anticancer human tumor 941728-121-R-J1-PDC cell line growth inhibition [RAS];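 also: spheroids exposed to compounds for 7 days before readout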;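 as to viability, T/C: 100% = DMSO vehicle control viability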
# particulars: second compound 0.000949 µM; first compound 3.16 µM; stronger effect = lower value
# maps each entry to its viability, T/C

molecule="Cc1nc(N2CCC3(CC2)COC(C)C3N)c(CO)nc1Sc1ccnc(N)c1Cl (stereo not given) + CCn1c(-c2cc(N3CCN(C)CC3)cnc2C(C)OC)c2c3cc(ccc31)-c1csc(n1)CC(NC(=O)C1CC1C)C(=O)N1CCCC(N1)C(=O)OCC(C)(C)C2" target="941728-121-R-J1-PDC complex spheroid viability" parameter="viability, T/C" value=18.7%
molecule="NC1c2ccccc2OC12CCN(c1cnc3c(N4CCCc5ncccc54)n[nH]c3n1)CC2 (stereo not given) + CCn1c(-c2cc(N3CCN(C)CC3)cnc2C(C)OC)c2c3cc(ccc31)-c1csc(n1)CC(NC(=O)C1CC1C)C(=O)N1CCCC(N1)C(=O)OCC(C)(C)C2" target="941728-121-R-J1-PDC complex spheroid viability" parameter="viability, T/C" value=16.6%
molecule="CC(Nc1ccc2c(c1)OCCn1cc(N3C(=O)OCC3C(F)F)nc1-2)C(N)=O (stereo not given) + CCn1c(-c2cc(N3CCN(C)CC3)cnc2C(C)OC)c2c3cc(ccc31)-c1csc(n1)CC(NC(=O)C1CC1C)C(=O)N1CCCC(N1)C(=O)OCC(C)(C)C2" target="941728-121-R-J1-PDC complex spheroid viability" parameter="viability, T/C" value=20.5%
molecule="CC(=O)OC12COC1CC(O)C1(C)C(=O)C(O)C3=C(C)C(OC(=O)C(O)C(NC(=O)OC(C)(C)C)c4ccccc4)CC(O)(C(OC(=O)c4ccccc4)C21)C3(C)C (stereo not given) + CCn1c(-c2cccnc2C(C)OC)c2c3cc(ccc31)N1CCOC(CC(NC(=O)C(C(C)C)N(C)C(=O)C3(F)CCN(C(=O)C#CC(C)(C)N(C)C)CC3)C(=O)N3CCCC(N3)C(=O)OCC(C)(C)C2)C1" target="941728-121-R-J1-PDC complex spheroid viability" parameter="viability, T/C" value=15.1%

Please examine the following record next.
Problem: Please tell me: viability, T/C of CC(Nc1ccc2c(c1)OCCn1cc(N3C(=O)OCC3C(F)F)nc1-2)C(N)=O (stereo not given) + CCn1c(-c2cccnc2C(C)OC)c2c3cc(ccc31)N1CCOC(CC(NC(=O)C(C(C)C)N(C)C(=O)C3(F)CCN(C(=O)C#CC(C)(C)N(C)C)CC3)C(=O)N3CCCC(N3)C(=O)OCC(C)(C)C2)C1 , system 941728-121-R-J1-PDC complex spheroid viability?
Result: 13.3%

---

# System: 941728-121-R-J1-PDC complex spheroid viability
# assay: Anticancer human tumor 941728-121-R-J1-PDC cell line growth inhibition [RAS];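 also: spheroids exposed to compounds for 7 days before readout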;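 as to viability, T/C: 100% = DMSO vehicle control viability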
# particulars: second compound 0.1 µM; first compound 0.03 µM; stronger effect = lower value
parameter: viability, T/C (%)
API: value field is a number in %; no unit string.

Recorded results for 3 compounds are shown here.
compound="CCc1c2c(nc3ccc(O)cc13)-c1cc3c(c(=O)n1C2)COC(=O)[C@]3(O)CC + C#Cc1c(F)ccc2cc(O)cc(-c3ncc4c(N5CC6CCC(C5)N6)nc(OCC56CCCN5CC(F)C6)nc4c3F)c12" value=53.6
compound="CC1(C)CCC(Nc2ncc(C(F)(F)F)c(-c3c[nH]c4c(P(C)(C)=O)c(C#N)ccc34)n2)CN1 (centres undefined) + C#Cc1c(F)ccc2cc(O)cc(-c3ncc4c(N5CC6CCC(C5)N6)nc(OCC56CCCN5CC(F)C6)nc4c3F)c12" value=52.7
compound="CC1(C)CCC(Nc2ncc(C(F)(F)F)c(-c3c[nH]c4c(P(C)(C)=O)c(C#N)ccc34)n2)CN1 (centres undefined) + C=CC(=O)N1CCN(c2nc(OCC3CCCN3C)nc3c(F)c(-c4nc(N)cc(C)c4C(F)(F)F)c(Cl)cc23)C(C)C1" value=17.2

Please examine the following record next.
Problem: Fill blank: measured viability, T/C of the compound CCc1c2c(nc3ccc(O)cc13)-c1cc3c(c(=O)n1C2)COC(=O)[C@]3(O)CC + C=CC(=O)N1CCN(c2nc(OCC3CCCN3C)nc3c(F)c(-c4nc(N)cc(C)c4C(F)(F)F)c(Cl)cc23)C(C)C1 is ____.
Result: 12.6

---

# maps each entry to its viability, T/C
# System: 941728-121-R-J1-PDC complex spheroid viability
# assay: Anticancer human tumor 941728-121-R-J1-PDC cell line growth inhibition [RAS];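 also: spheroids exposed to compounds for 7 days before readout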;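 as to viability, T/C: 100% = DMSO vehicle control viability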
# particulars: compound 0.03 µM; stronger effect = lower value

molecule=CCc1c2c(nc3ccc(O)cc13)-c1cc3c(c(=O)n1C2)COC(=O)[C@]3(O)CC parameter="viability, T/C" value="67.4% [middle of 4 runs]"

Problem: Fill blank: measured viability, T/C of the molecule CCn1c(-c2cc(N3CCN(C)CC3)cnc2C(C)OC)c2c3cc(ccc31)-c1csc(n1)CC(NC(=O)C1CC1C)C(=O)N1CCCC(N1)C(=O)OCC(C)(C)C2 (centres undefined) is ____.
Result: 13.9% [middle of 8 runs]

Problem: Fill blank: measured viability, T/C of the molecule CC1(C)CCC(Nc2ncc(C(F)(F)F)c(-c3c[nH]c4c(P(C)(C)=O)c(C#N)ccc34)n2)CN1 (centres undefined) is ____.
Result: 63.8% [middle of 4 runs]

Problem: Fill blank: measured viability, T/C of the molecule CCn1c(-c2cccnc2C(C)OC)c2c3cc(ccc31)N1CCOC(CC(NC(=O)C(C(C)C)N(C)C(=O)C3(F)CCN(C(=O)C#CC(C)(C)N(C)C)CC3)C(=O)N3CCCC(N3)C(=O)OCC(C)(C)C2)C1 (centres undefined) is ____.
Result: 24.1% [middle of 8 runs]

---

# System: 941728-121-R-J1-PDC complex spheroid viability
# assay: Anticancer human tumor 941728-121-R-J1-PDC cell line growth inhibition [RAS];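 also: spheroids exposed to compounds for 7 days before readout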
# particulars: curve of first compound; second compound 0.3 µM
# maps each entry to its IC50

compound="NC1c2ccccc2OC12CCN(c1cnc3c(N4CCCc5ncccc54)n[nH]c3n1)CC2 (centres undefined) + CCn1c(-c2cc(N3CCN(C)CC3)cnc2C(C)OC)c2c3cc(ccc31)-c1csc(n1)CC(NC(=O)C1CC1C)C(=O)N1CCCC(N1)C(=O)OCC(C)(C)C2" target="941728-121-R-J1-PDC complex spheroid viability" parameter=IC50 value="< 31.6 nM"
compound="Nc1ccn(C2OC(CO)C(O)C2(F)F)c(=O)n1 (centres undefined) + CCn1c(-c2cccnc2C(C)OC)c2c3cc(ccc31)N1CCOC(CC(NC(=O)C(C(C)C)N(C)C(=O)C3(F)CCN(C(=O)C#CC(C)(C)N(C)C)CC3)C(=O)N3CCCC(N3)C(=O)OCC(C)(C)C2)C1" target="941728-121-R-J1-PDC complex spheroid viability" parameter=IC50 value="< 3.16 nM"

Problem: Fill blank: measured IC50 of the compound C=CC(=O)Nc1cc(Nc2nccc(-c3cn(C)c4ccccc34)n2)c(OC)cc1N(C)CCN(C)C + CCn1c(-c2cccnc2C(C)OC)c2c3cc(ccc31)N1CCOC(CC(NC(=O)C(C(C)C)N(C)C(=O)C3(F)CCN(C(=O)C#CC(C)(C)N(C)C)CC3)C(=O)N3CCCC(N3)C(=O)OCC(C)(C)C2)C1 is ____.
Result: < 3.16 nM

Problem: Fill blank: measured IC50 of the compound C=CC(=O)N1CCN(c2nc(OCC3CCCN3C)nc3c(F)c(-c4nc(N)cc(C)c4C(F)(F)F)c(Cl)cc23)C(C)C1 (centres undefined) + CCn1c(-c2cccnc2C(C)OC)c2c3cc(ccc31)N1CCOC(CC(NC(=O)C(C(C)C)N(C)C(=O)C3(F)CCN(C(=O)C#CC(C)(C)N(C)C)CC3)C(=O)N3CCCC(N3)C(=O)OCC(C)(C)C2)C1 is ____.
Result: < 3.16 nM

These measurements were taken from PubChem BioAssay AID2060896.
